Data provenance is the Kinase Knowledgebase extract (Sharma et al. 2016).

Catalogue of compounds with associated pIC50
target: MAPK14;MAPK11;MAPK12 (human) (UniProt Q16539); test: Inhibition of p38 Kinase Activity
pIC50: −log10 of the molar value.

# annotated cases, reported pIC50 shown
>>> endpoint_result("Cc1ccc(C(N)=O)cc1Nc1nc(NC2CCCc3ccccc32)nc(N[C@@H]2CCNC2)n1 (stereo partly specified)")
"> 6.00"
>>> endpoint_result("CNc1nc(Nc2ccc3ncsc3c2)nc(N[C@@H](C)C2CCCCC2)n1")
"> 5.00"

The compound identified as `Cc1ccc(-c2nnco2)cc1Nc1nc(N[C@@H]2CCNC2)nc(N(C)CC(C)(C)C)n1` registered its pIC50 at > 6.00

The compound identified as CNC1CCN(c2cc(NCCOC(C)C)nc(-n3cnc4cc(C)ccc43)n2)C1 (stereo unspecified) registered its pIC50 at > 5.00

The compound identified as `CONC(=O)c1ccc(C)c(Oc2nc(N[C@@H]3CCNC3)nc(N(C)CC(C)(C)C)n2)c1` registered its pIC50 at > 4.52

The compound identified as `CONC(=O)c1ccc(C)c(Sc2nc(NCc3ccccn3)nc(N(C)CC(C)(C)C)n2)c1` registered its pIC50 at > 4.52

---

target: MAPK14;MAPK11;MAPK12 (human) (UniProt Q16539); assay: Inhibition of p38 Kinase Activity
pIC50: −log10 of the molar value.
Catalogue of compounds with associated pIC50

# annotated cases, reported pIC50 shown
>>> endpoint_result("Cc1ccc(C(=O)NC(C)C)cc1Nc1nc(N[C@H]2CCNC2)nc(N(C)CC(C)(C)C)n1")
"> 6.00"
>>> endpoint_result("Cc1ccc(C(N)=O)cc1Nc1nc(N[C@H]2CCCNC2)nc(N(C)CC(C)(C)C)n1")
"> 6.00"
>>> endpoint_result("O=C(O)CCC(=O)N1CCN(c2nc(NCC3CCCCC3)nc(Nc3ccc4ncsc4c3)n2)CC1")
"> 5.00"
>>> endpoint_result("CC(CNc1nc(Nc2ccc3ncsc3c2)nc(N2CCN(S(=O)(=O)N(C)C)CC2)n1)c1ccccc1 (stereo not drawn)")
"> 5.00"
>>> endpoint_result("COC1CCCC(C(=O)N2CCN(c3nc(NCC(C)c4ccccc4)nc(Nc4ccc5ncsc5c4)n3)CC2)C1 (stereo not drawn)")
"> 5.00"
>>> endpoint_result("Cc1ccc(C(N)=O)cc1Nc1nc(N[C@H]2CCN(Cc3cccc4c3OCO4)C2)nc(N(C)CC(C)C)n1")
"> 6.00"

The compound identified as `COc1ccccc1NC(=O)c1ccc(C)c(Nc2nc(N[C@H]3CCNC3)nc(N(C)CC(C)(C)C)n2)c1` registered its pIC50 at > 6.00

The compound identified as `CONC(=O)c1ccc(C)c(Nc2nc(NCCN3CCCC3)nc(N(C)CC(C)(C)C)n2)c1` registered its pIC50 at > 6.00

The compound identified as Cc1ccc(C(N)=O)cc1Nc1nc(NC2CCCNC2)nc(N(C)CC(C)C)n1 (stereo not drawn) registered its pIC50 at > 6.00

The compound identified as `CN(CC1CCCCC1)c1nc(Nc2ccc3ncsc3c2)nc(N2CCNCC2)n1` registered its pIC50 at > 5.00

The compound identified as `Cc1ccc(C(N)=O)cc1Nc1cc(N(C)CC(C)C)nc(N[C@H]2CCNC2)n1` registered its pIC50 at > 6.00
